Numbers sourced from patent US20240317847A1.

We begin with a simple list: items and their reported pKd.
# assayTarget: T1, human IL-11 (human, UniProt P20809 22-199)
# T1 construct: bought from Invigate; also called hIL-11; hIL11
# T1 sequence: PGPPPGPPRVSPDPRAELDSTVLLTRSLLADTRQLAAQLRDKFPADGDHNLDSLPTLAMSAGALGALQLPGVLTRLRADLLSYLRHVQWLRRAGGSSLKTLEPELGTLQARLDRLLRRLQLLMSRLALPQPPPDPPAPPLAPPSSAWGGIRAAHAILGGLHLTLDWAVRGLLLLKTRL
# protocolSummary: SPR, antibody captured, IL-11 as analyte
Entry type: numeric. Quantity: pKd, the -log10 of concentration in molar units.

| binder | pKd |
| --- | --- |
| TPP-26314 (antibody, V domains shown, constant regions not restated) VH: EVQLLESGGGLVQPGGSLRLSCAASGFTFSSYGMHWVRQAPGKGLEWVSVISYDGSYKYYADSVKGRFTISRDNSKNTLYLQMNSLRAEDTAVYYCAAGVPDYWGQGTLVTVSS VL: QSVLTQPPSASGTPGQRVTISCTGSSSNIGAGYDVHWYQQLPGTAPKLLIYSNNERPSGVPDRFSGSKSGTSASLAISGLRSEDEADYYCAAWDWSLNGPVFGGGTKLTVL | 8.08 |
| TPP-26299 (antibody, V domains shown, constant regions not restated) VH: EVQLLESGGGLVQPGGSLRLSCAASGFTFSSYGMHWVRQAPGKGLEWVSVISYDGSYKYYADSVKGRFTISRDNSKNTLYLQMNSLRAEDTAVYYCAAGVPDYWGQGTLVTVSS VL: QSVLTQPPSASGTPGQRVTISCTGSSSNIGAGYDVHWYQQLPGTAPKLLIYSNNERPSGVPDRFSGSKSGTSASLAISGLRSEDEADYYCAAWDDSLYGPVFGGGTKLTVL | 7.96 |
| TPP-26330 (antibody, V domains shown, constant regions not restated) VH: EVQLLESGGGLVQPGGSLRLSCAASGFTFSFYGMHWVRQAPGKGLEWVSVISYDGSYKYYADSVKGRFTISRDNSKNTLYLQMNSLRAEDTAVYYCAAGVPDYWGQGTLVTVSS VL: QSVLTQPPSASGTPGQRVTISCTGSSSNIGAGYDVHWYQQLPGTAPKLLIYSNNERPSGVPDRFSGSKSGTSASLAISGLRSEDEADYYCAAWDDSLNGPVFGGGTKLTVL | 8.02 |
| TPP-26307 (antibody, V domains shown, constant regions not restated) VH: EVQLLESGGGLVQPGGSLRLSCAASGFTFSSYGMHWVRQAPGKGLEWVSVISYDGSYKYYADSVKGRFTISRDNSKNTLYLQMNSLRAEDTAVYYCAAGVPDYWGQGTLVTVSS VL: QSVLTQPPSASGTPGQRVTISCTGSSSNIGAGYDVHWYQQLPGTAPKLLIYSNNERPSGVPDRFSGSKSGTSASLAISGLRSEDEADYYCAAWDISLNGPVFGGGTKLTVL | 7.80 |
| TPP-26303 (antibody, V domains shown, constant regions not restated) VH: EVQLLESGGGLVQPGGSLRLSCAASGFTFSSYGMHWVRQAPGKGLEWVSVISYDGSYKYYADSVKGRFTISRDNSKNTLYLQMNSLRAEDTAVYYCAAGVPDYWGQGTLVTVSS VL: QSVLTQPPSASGTPGQRVTISCTGSSSNIGAGYDVHWYQQLPGTAPKLLIYSNNERPEGVPDRFSGSKSGTSASLAISGLRSEDEADYYCAAWDDSLNGPVFGGGTKLTVL | 7.89 |

Short answer for TPP-26298 (antibody, V domains shown, constant regions not restated) VH: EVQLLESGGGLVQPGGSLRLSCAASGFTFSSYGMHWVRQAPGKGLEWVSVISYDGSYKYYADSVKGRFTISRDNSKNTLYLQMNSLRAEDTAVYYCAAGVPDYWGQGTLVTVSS VL: QSVLTQPPSASGTPGQRVTISCLGSSSNIGAGYDVHWYQQLPGTAPKLLIYSNNERPSGVPDRFSGSKSGTSASLAISGLRSEDEADYYCAAWDDSLNGPVFGGGTKLTVL : pKd was 7.89

Short answer for TPP-26329 (antibody, V domains shown, constant regions not restated) VH: EVQLLESGGGLVQPGGSLRLSCAASGFTFSSWGMHWVRQAPGKGLEWVSVISYDGSYKYYADSVKGRFTISRDNSKNTLYLQMNSLRAEDTAVYYCAAGVPDYWGQGTLVTVSS VL: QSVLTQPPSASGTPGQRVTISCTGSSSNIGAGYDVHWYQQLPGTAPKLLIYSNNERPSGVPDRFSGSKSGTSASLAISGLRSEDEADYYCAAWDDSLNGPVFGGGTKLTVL : pKd was 7.85
